Hi there, I'd appreciate the recorded GI50 for every entry that follows.
- Method Description: Growth inhibition of human UWB1289 cells harboring BRCA1 incubated for 48 hrs by MTT assay
- Assay type: functional

Some molecules with recorded GI50:
- Compound String: "C[C@]12CC[C@H]3[C@@H](CCC4=CC(=O)NCC[C@@]43C)[C@@H]1CC[C@@H]2OC(=O)[C@@H](O)COc1ccc(N(CCCl)CCCl)cc1"
  Reported Measurement: "1.2 µM"
- Compound String: "CC(=O)O[C@@H](COc1ccc(N(CCCl)CCCl)cc1)C(=O)O"
  Reported Measurement: "> 100 µM"
- Compound String: "CC(=O)O[C@@H](COc1ccc(N(CCCl)CCCl)cc1)C(=O)O[C@H]1CC[C@H]2[C@@H]3CCC4=CC(=O)NCC[C@]4(C)[C@H]3C(=O)C[C@]12C"
  Reported Measurement: "3 µM"

Exercise: What value of GI50 has been recorded for this entry: C[C@]12CC(=O)[C@H]3[C@@H](CCC4=CC(=O)NCC[C@@]43C)[C@@H]1CC[C@@H]2OC(=O)[C@@H](O)COc1ccc(N(CCCl)CCCl)cc1
Solution: 5 µM
